Data provenance: ChEMBL document CHEMBL1201862

- System: UACC-62
- procedure.details: NCI tumour cell line growth inhibition, 48 h
The source made the active and inactive calls. No stated cut-off is given here; in the data, active = GI50 up to about 1.1 µM and inactive = higher. Where a SMILES comes first, the peptide text is derived from it.
Please reply with one of these outcomes: true = active, false = inactive

(Q) Record lookup: outcome of this test for C/C(=N/NC(=S)Nc1cccc(C)c1)c1ccccn1 ?
(A) true

(Q) Record lookup: outcome of this test for O=c1c2ccccc2sc2cccc(NCCCN3CCN(CCCNc4cccc5sc6ccccc6c(=O)c45)CC3)c12 ?
(A) false

(Q) Record lookup: outcome of this test for O=C(NCP(=O)(c1ccccc1)c1ccccc1)OCc1ccccc1 ?
(A) false

Next:
(Q) Record lookup: outcome of this test for C[C@]12CC[C@H](O)CC1=CC[C@@H]1C2CC[C@]2(C)c3n[nH]nc3CC12 (stereo partly specified) ?
(A) false

(Q) Record lookup: outcome of this test for O=C(O)c1nc(-c2ccccn2)c(-c2ccccn2)nc1C(=O)O ?
(A) false

(Q) Record lookup: outcome of this test for Sc1ccc2ccccc2c1CNCc1ccccc1 ?
(A) false

(Q) Record lookup: outcome of this test for CC(C)=CC1C(COC(=O)c2ccccc2Cl)C1(C)C (stereo unspecified) ?
(A) false

(Q) Record lookup: outcome of this test for CC(=O)NC(CS)C(=O)NC(CO)C(=O)NC(CO)C(=O)NC(Cc1c[nH]c2ccccc12)C(=O)N1CCCC1C(=O)NC(CO)C(=O)NC(Cc1c[nH]c2ccccc12)C(=O)NC(Cc1c[nH]cn1)C(=O)NC(CO)C(=O)NC(Cc1c[nH]c2ccccc12)C(=O)NCC(=O)NCC(=O)NC(CC(=O)O)C(=O)NC(CCC(N)=O)C(=O)NC(CCCCN)C(=O)NC(Cc1ccccc1)C(=O)NC(CCCNC(=N)N)C(=O)NC(CCCCN)C(N)=O (stereo unspecified) (Ac-CSSWPSWHSWGGDQKFRK-NH2; configuration not given here) ?
(A) false

(Q) Record lookup: outcome of this test for COc1ccc(CNc2nc3ccccc3nc2C(=O)O)cc1 ?
(A) false

(Q) Record lookup: outcome of this test for Cn1c(=O)c2nc(CSCc3ccccc3)[nH]c2n(C)c1=O ?
(A) false

(Q) Record lookup: outcome of this test for C=C(C)C1(Sc2ccc(OC)cc2)CC1 ?
(A) false

====

- System: SNB-78
- procedure.details: NCI tumour cell line growth inhibition, 48 h
The source made the active and inactive calls. Cut-off read from the data, not from the text of the source: active = GI50 up to about 1.1 µM and inactive = higher.
recorded.endpoint: GI50

(Q) Fill in: GI50 of N#CC12CCC(O)C(CC1)C2=O (stereo unspecified) is ___
(A) > 100 µM (inactive)

(Q) Fill in: GI50 of O=C(O)/C(Cl)=C(\Cl)C(=O)Nc1ccccc1 is ___
(A) > 100 µM (inactive)

(Q) Fill in: GI50 of COC12CCC(=O)C=C1c1ccccc1N2C(C)=O (stereo unspecified) is ___
(A) > 100 µM (inactive)

(Q) Fill in: GI50 of Cc1ccc(NC(=O)C2C(=O)N(c3ccc(C)c(C)c3)C(=O)/C2=N\NC(N)=S)cc1C (stereo unspecified) is ___
(A) > 100 µM (inactive)

(Q) Fill in: GI50 of CC(=O)Oc1cc(OC(C)=O)c2c(=O)c3ccccc3[nH]c2c1 is ___
(A) 57 µM (inactive)

(Q) Fill in: GI50 of CCOC(=O)C(=O)Nc1cc(Cl)c(Cl)cc1Cl is ___
(A) > 100 µM (inactive)
